# TESTED_TARGET: human GCG receptor (human, UniProt P47871 26-477)
# Sequence (P47871 26-477): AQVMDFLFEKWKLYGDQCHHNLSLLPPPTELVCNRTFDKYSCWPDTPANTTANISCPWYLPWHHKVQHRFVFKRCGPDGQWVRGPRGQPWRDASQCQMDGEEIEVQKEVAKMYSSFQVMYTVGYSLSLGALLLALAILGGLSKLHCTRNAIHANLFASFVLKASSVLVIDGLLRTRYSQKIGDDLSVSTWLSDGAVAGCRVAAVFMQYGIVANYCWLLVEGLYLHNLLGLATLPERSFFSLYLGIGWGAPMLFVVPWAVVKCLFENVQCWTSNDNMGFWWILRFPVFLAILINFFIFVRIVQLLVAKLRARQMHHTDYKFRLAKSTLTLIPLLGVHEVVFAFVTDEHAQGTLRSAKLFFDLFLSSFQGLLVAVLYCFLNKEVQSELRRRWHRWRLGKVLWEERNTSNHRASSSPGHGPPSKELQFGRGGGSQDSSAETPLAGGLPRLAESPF
# PROTOCOL_SUMMARY: cell-based or functional assay
Bridges are numbered along the chain shown (N, C = ends). Where no end group is shown, it is not given here. [ ]: non-standard residue; d: D form. Aib = CC(C)(N)C(=O)O
OBSERVED_PROPERTY: In vitro activity (%) vs. Glucagon, cAMP EC50
Numbers only, in %.

[
  {
    "BINDER": "Y[Aib]QGTFTSDYSKALDEKAAKDFVNWLLDHHPSSGQPPPSC (bridge 16-20; ends not checked) [triple agonist of SEQ ID NO: 99]",
    "READOUT_VALUE": 14.9
  }
]

Attention now turns to another entry.
Please give the measured In vitro activity (%) vs. Glucagon, cAMP EC50 for this binder: H[Aib]QGTFTSDVSKYLDGQAAQEFVAWLLAGC [triple agonist of SEQ ID NO: 9]
0.13
